# System: BV-2
# assay remarks: Anti-inflammatory activity against LPS-induced mouse BV-2 cells assessed as inhibition rate of LPS-induced […] production at 80 uM pretreated for 1 hr followed by challenged with LPS and measured after 24 hrs incubation by Griess assay
# Format: functional
# experimental setup: time 25 hrs
measured endpoint: inhibition at 80 µM
Remember to follow the number with its unit.

Challenge: What inhibition at 80 µM value was documented for this molecule, CC(C)=CC(=O)OC(C)c1ccc(C(F)(F)F)cc1 (configuration not stated) ?
Response given: 28.2%

Challenge: What do you get for CC(C)=CC(=O)CC(c1ccc(F)cc1)c1ccc(C(F)(F)F)cc1 (configuration not stated) ?
Response given: 19.1%

Challenge: Do the same for CC(C)=CC(=O)CC(C)c1ccccc1Cl (configuration not stated) please
Response given: 47.7%

Challenge: Subsequent entry: CC(C)=CC(=O)OC(C)c1ccc(C)cc1 (configuration not stated)
Response given: 64.5%

Challenge: // repeat for CC(C)=CC(=O)CC(C)c1ccc(C)cc1 (racemic) and report
Response given: 81.5%

Challenge: Consider next the molecule CC(C)=CC(=O)OC(C)c1ccc2ccccc2c1 (configuration not stated) in the same way.
Response given: 7.97%

Challenge: Subsequent entry: CC(C)=CC(=O)NC(C)c1ccc(-c2ccccc2)cc1 (configuration not stated)
Response given: 16.9%

Challenge: Param item: CC(C)=CC(=O)CC(c1ccc(F)cc1)c1ccc(-c2ccccc2)cc1 (configuration not stated)
Response given: 29.3%

Challenge: Same question, CC(C)=CC(=O)CC(C)c1ccc(C(F)(F)F)cc1 (configuration not stated) this time
Response given: 26.8%

Challenge: Query CCCC(OC(=O)C=C(C)C)c1ccc(-c2ccccc2)cc1 (configuration not stated) next
Response given: 14.9%

Challenge: How about CC(C)=CC(=O)NC(C)c1ccc(C)cc1 (configuration not stated) ?
Response given: 79.8%

Challenge: Request: CC(C)=CC(=O)NC(C)c1ccccc1 (configuration not stated)
Response given: 22.3%
